Target: human IgG (available from the Chemo-Sero-Therapeutic Research Institute) (human)
Experiment: binding capacity; binder immobilised on agarose gel, 40 mg/mL human IgG, acid elution, A280
observation.type: IgG Binding Capacity (mg/mL gel)
State just the number; it will be interpreted in mg/mL gel.

INSERT INTO assay_data (binder, unit_info, result) VALUES
  ('chimeric protein PL-014 containing immunoglobulin-binding domain 4 of Protein L (designed binder) MAQHDEAGLALETPEEPKEEVTIKVNLIFADGKTQTAEFKGTFEEATAEAYRYADLLAKVNGEYTADLEDGGYTINIKFAGALPSKSKKILKEAKKLNKAQAPKKKK', 'mg/mL gel', 57.4),
  ('chimeric protein PL-021 containing immunoglobulin-binding domain 1 of Protein L (designed binder) MAQHDEAGLALETPEPEEEVTIKANLIFADGSTQNAEFKGTFAKAVSDAYAYADALKKDNGEYTVDVADKGLTLNIKFAGALPSKSKKILKEAKKLNKAQAPKKKK', 'mg/mL gel', 45.3),
  ('chimeric protein PL-023 containing immunoglobulin-binding domain 3 of Protein L (designed binder) MAQHDEAGLALETPEEPKEEVTIKVNLIFADGKIQTAEFKGTFEEATAKAYAYANLLAKENGEYTADLEDGGNTINIKFAGALPSKSKKILKEAKKLNKAQAPKKKK', 'mg/mL gel', 52.2);

Moving on to the next binder.
Any idea what IgG Binding Capacity was measured for chimeric protein PL-022 containing immunoglobulin-binding domain 2 of Protein L (designed binder) MAQHDEAGLALEKPEEPKEEVTIKVNLIFADGKTQTAEFKGTFEEATAKAYAYADLLAKENGEYTADLEDGGNTINIKFAGALPSKSKKILKEAKKLNKAQAPKKKK ? 53.3
